Taken from patent US20170253601A1.

target: SMYD2 (Homo sapiens, UniProt Q9NRG4); construct: Full length SMYD2 (NP 064582.2) was cloned; His6 (N, cleaved yes); FLAG (N); made in house; host or cells: Sf9 insect cells; assay: SMYD2 Biochemical Assay (3H-SAM, biotinylated peptide substrate, Flashplate); conditions: IC50 values are an average of n = 1 to n = 50; read-out: SMYD2 Biochem IC50 (μM)*
Sequence (Q9NRG4 whole entry): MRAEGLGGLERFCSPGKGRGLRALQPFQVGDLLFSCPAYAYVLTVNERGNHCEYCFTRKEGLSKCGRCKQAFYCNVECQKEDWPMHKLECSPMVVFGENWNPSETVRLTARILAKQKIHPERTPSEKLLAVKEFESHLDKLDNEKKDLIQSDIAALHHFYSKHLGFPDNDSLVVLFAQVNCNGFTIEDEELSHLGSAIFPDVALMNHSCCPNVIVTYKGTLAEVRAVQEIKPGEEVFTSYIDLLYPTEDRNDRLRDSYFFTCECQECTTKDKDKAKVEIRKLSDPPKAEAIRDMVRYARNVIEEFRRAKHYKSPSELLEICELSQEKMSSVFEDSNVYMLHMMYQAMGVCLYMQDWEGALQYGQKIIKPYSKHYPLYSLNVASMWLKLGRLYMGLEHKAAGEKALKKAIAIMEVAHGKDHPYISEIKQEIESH
readout-name: IC50 (µM)

// worked examples, IC50 included
INSERT INTO measurements (compound, readout_name, result_number) VALUES
  ('CC(C)N1C[C@@H](C)[C@@H](NC(=O)c2cc(C3CC3)on2)C1', 'IC50', 0.682),
  ('CCOC(=O)C(C)CN1C[C@H](C)[C@H](NC(=O)c2cc(C3CC3)on2)C1 (relative stereo)', 'IC50', 20.8),
  ('C[C@H](c1ccccc1)N1C[C@@H](CO)[C@H](NC(=O)c2cc(C3CC3)on2)C1', 'IC50', 38.2);

1: C[C@H]1CN(Cc2ccc(Cl)cc2Cl)C[C@H]1NC(=O)c1cc(C2CC2)on1 (racemic)
2: C[C@H]1CN(Cc2ccccn2)C[C@H]1NC(=O)c1cc(C2CC2)on1 (racemic)
3: CC(C)N1C[C@H](NC(=O)c2cc(C3CC3)on2)C[C@@H]1COCC#Cc1ccccc1 (stereo in doubt)
4: CC(c1ccccc1)N1C[C@H](C)[C@H](NC(=O)c2cc(C3CC3)on2)C1 (mixture of isomers)
Exercise: Arrange the 4 entries by IC50 so the values rise. Sort the labels as requested; that list is your answer.
Solution: 4, 1, 2, 3

----------
molecular target: SMYD2 (Homo sapiens, UniProt Q9NRG4); construct: Full length SMYD2 (NP 064582.2) was cloned; His6 (N, cleaved yes); FLAG (N); made in house; host or cells: Sf9 insect cells; experiment: SMYD2 Biochemical Assay (3H-SAM, biotinylated peptide substrate, Flashplate); details: Table 2; average of n = 1 to n = 50; read-out: SMYD2 Biochem IC50
readout-name: IC50

INSERT INTO measurements (compound, readout_name, result) VALUES
  ('C[C@@H]1CN(Cc2ccncc2)C[C@H]1NC(=O)c1cc(C2CC2)on1 (racemic)', 'IC50', '> 50 µM');

# compound C[C@H]1CN(C(=O)CN)C[C@@H]1NC(=O)c1cc(C2CC2)on1 (racemic) ; its IC50 = > 50 µM

# compound C[C@@H]1CN(C2CCCC2)C[C@H]1NC(=O)c1cc(C2CC2)on1 (racemic) ; its IC50 = 48.7 µM

# compound C[C@@H]1CN(C2CCNCC2)C[C@@H]1NC(=O)c1cc(C2CC2)on1 (racemic) ; its IC50 = > 50 µM

# compound C[C@@H]1CN(Cc2ccccn2)C[C@H]1NC(=O)c1cc(C2CC2)on1 (racemic) ; its IC50 = > 50 µM

# compound C[C@@H]1CN(C(=O)C2CCNCC2)C[C@H]1NC(=O)c1cc(C2CC2)on1 (racemic) ; its IC50 = > 50 µM

# compound C[C@H]1CN(C(=O)C2CCNCC2)C[C@H]1NC(=O)c1cc(C2CC2)on1 (racemic) ; its IC50 = > 50 µM

# compound C[C@@H]1CN(C2CCN(C)CC2)C[C@H]1NC(=O)c1cc(C2CC2)on1 (racemic) ; its IC50 = > 50 µM

# compound C[C@@H]1CN(S(C)(=O)=O)C[C@H]1NC(=O)c1cc(C2CC2)on1 (racemic) ; its IC50 = > 50 µM
